Each recorded value in this set is attributed to PubChem BioAssay (NCI).

- Test system: MCF7 breast
- Protocol: NCI-60 one-dose screen, 48 h (100 = growth as untreated, 0 = no growth, -100 = all killed)
- Setup conditions: 10 µM unless noted
- Procedure: Growth inhibition of the MCF7 human tumor cell line is measured as a screen for anti-cancer activity. Cells are grown in 96 well plates and exposed to the test compound for 48 hours. Compounds are tested at a single concentration, which is 10^-5 M for most compounds. The reported endpoint is percent growth (GI% or GIPRCNT), where numbers from 0 - 100% represent growth inhibition, and numbers from -100% - 0 represent cell death. For example, a value of 40 represents 60% growth inhibition. […]
Compounds without any hit were thinned out: in the full panel of roughly 83,000, 20% have a hit.
Endpoint name: growth (%)

Compound: Oc1c(Cl)cc(Cl)cc1/C=N/Nc1nnc(N/N=C/c2cc(Cl)cc(Cl)c2O)c2ccccc12
Unit abbreviation: %
Result value: 7.3
//
Compound: O=C(O)CCCN1C(=O)/C(=C/C(Cl)=C/c2ccccc2)SC1=S
Unit abbreviation: %
Result value: 14.2
//
Compound: COc1ccc(C/C(C)=C(/c2ccc(OCCN3CCCCC3)cc2)c2ccc(OC(=O)NCc3ccccc3)cc2)cc1
Unit abbreviation: %
Result value: -84.6
//
Compound: C=C(CNCCc1ccc(O)cc1)[C@@H]1CC[C@]2(CO)CC[C@]3(C)[C@H](CC[C@@H]4[C@@]5(C)CCC(NCCO)C(C)(C)[C@@H]5CC[C@]43C)[C@@H]12 (stereo not given in full)
Unit abbreviation: %
Result value: -72.3
//
Compound: O=C(N/N=C/c1ccc(F)cc1)c1ccc(C(F)(F)F)nc1Nc1cccc(C(F)(F)F)c1
Unit abbreviation: %
Result value: -18.6
//
Compound: C[C@]12CC[C@@H]3c4ccc(O)c([N+](=O)[O-])c4CC[C@H]3[C@@H]1CCC2=O
Unit abbreviation: %
Result value: 112
//
Compound: COc1cccc(NC(=O)Cn2cc(CN3CCN(c4ccnc5cc(Cl)ccc45)CC3)nn2)c1
Unit abbreviation: %
Result value: 86.7
//
Compound: CC(C)CCC[C@@H](C)[C@H]1CC[C@H]2[C@@H]3CC=C4C[C@@H](C(C(=O)O)C(=O)O)CC[C@]4(C)[C@H]3CC[C@]12C
Unit abbreviation: %
Result value: 1.84
//
Compound: CC1(C)CC2=C3C=C[C@@H]4[C@@]5(C)CCC(=O)C(C)(C)[C@@H]5CC[C@@]4(C)[C@]3(C)CC[C@@]2(C(=O)O)CC1=O
Unit abbreviation: %
Result value: 57.3
//
Compound: COc1ccc(/C=C2\COc3ccc(O)cc3C2=O)c(OC)c1OC
Unit abbreviation: %
Result value: 24.5
//
Compound: COc1ccc(-c2csc(N(C(=O)N3CCN(c4cc5c(cc4F)c(=O)c(C(=O)O)cn5C4CC4)CC3)c3ccccc3)n2)cc1
Unit abbreviation: %
Result value: 8.74
//
Compound: CCC(=C(c1ccc(OCCN2CCCC2)cc1)c1ccc(OCCN2CCCC2)cc1)c1ccc(Cl)cc1
Unit abbreviation: %
Result value: -76
//
Compound: O=C(NNC(=O)c1ccc(-n2cc(-c3ccccc3)nn2)cc1)Nc1ccccc1
Unit abbreviation: %
Result value: 99.4
//
Compound: N=C(N)c1ccc(-c2ccc(-c3ccc(F)cc3)o2)o1
Unit abbreviation: %
Result value: 10.5
//
Compound: COc1cc(CNS(=O)(=O)c2ccc(C)cc2)ccc1OCc1cn(-c2ccc(Br)cc2)nn1
Unit abbreviation: %
Result value: 88
//
Compound: COc1ccc(Cc2cc(-c3ccccc3)nn(Cc3ccccc3)c2=O)cc1OC
Unit abbreviation: %
Result value: 19.9
//
Compound: CN1CCN(Cc2ccc(NC(=O)c3cncc(C#Cc4cnc(N)c5ccccc45)c3)cc2C(F)(F)F)CC1
Unit abbreviation: %
Result value: -76.8
//
Compound: O=C(NCCCN1CCOCC1)c1cccc(N2C(=O)/C(=C/c3ccc(F)cc3)SC2=S)c1
Unit abbreviation: %
Result value: 92.9
//
Compound: O=C1N(Cc2ccccc2Cl)c2ccccc2C12NN=C(c1cccc(Cl)c1)S2 (stereo not given)
Unit abbreviation: %
Result value: 1.43
//
Compound: CN(Cc1ccc(C(F)(F)F)cc1)CC(O)C(=O)Nc1ccc(Cl)cc1 (stereo not given)
Unit abbreviation: %
Result value: -23.4
//
Compound: O=C1Nc2ccc(I)cc2C1=O
Unit abbreviation: %
Result value: 71.5
//
Compound: COc1cc(-c2csc(NC(=O)c3cc(-n4cnc(C)c4)cc(C(F)(F)F)c3)n2)cc(OC)c1OC
Unit abbreviation: %
Result value: 61.8
//
Compound: CN(C)CCNc1nc2c3cc(Cl)ccc3nn2c2ccccc12
Unit abbreviation: %
Result value: 35.3
//
Compound: COc1cc(CNC(=O)CCCC/C=C/C(C)C)ccc1OCc1nnc(Nc2ccc([N+](=O)[O-])cc2)o1
Unit abbreviation: %
Result value: 55.2
//
Compound: COc1cc(C(=O)n2nc(N3CCN(C)CC3)c3cc(N)ccc32)cc(OC)c1OC
Unit abbreviation: %
Result value: 11.6
//
Compound: COC(C(=O)[C@@H](O)[C@@H](C)O)[C@@H]1Cc2cc3cc(O[C@H]4C[C@@H](O[C@H]5C[C@@H](O)[C@H](O)C(C)O5)[C@H](O)C(C)O4)cc(O)c3c(O)c2C(=O)[C@H]1O[C@H]1C[C@@H](O[C@H]2C[C@@H](O[C@H]3C[C@@H](OC)[C@H](O)C(C)O3)[C@@H](O)C(C)O2)[C@H](O)C(C)O1 (stereo not given in full)
Unit abbreviation: %
Result value: 11.5
//
Compound: O=C1C(Cl)=C(Nc2ccc(O)cc2)C(=O)N1Cc1ccc(Cl)cc1
Unit abbreviation: %
Result value: 18.1
//
Compound: CC(=O)OC[C@]12CCC(C)(C)C[C@H]1[C@@]1(O)[C@H](O)C[C@@H]3[C@@]4(C)CCCNC(C)(C)[C@@H]4CC[C@@]3(C)[C@]1(C)CC2
Unit abbreviation: %
Result value: 102
//
Compound: C/C(=N/O)c1ccc(F)cc1
Unit abbreviation: %
Result value: 54.3
//
Compound: Cc1cc(Cl)ccc1NC(=O)c1cc2ccccc2cc1O
Unit abbreviation: %
Result value: 2.86
//
Compound: Cn1ccc2c3c(ccc21)CC3=O
Unit abbreviation: %
Result value: 107
//
Compound: CNC(=O)c1c(NC(=O)c2ccc(C(F)(F)F)cc2)sc2c1CCC(=O)C2
Unit abbreviation: %
Result value: 0.392
//
Compound: O=S(=O)(Nc1ccc(Cl)cc1)c1ccc(-c2cnc(C3CC3)o2)cc1
Unit abbreviation: %
Result value: 18.7
//
Compound: Cc1cc(Cl)ccc1Nc1nc(C(F)(F)F)ccc1C(=O)N/N=C/c1ccc([N+](=O)[O-])cc1
Unit abbreviation: %
Result value: -47.7
//
Compound: COc1cc(/C=C/C(=O)c2cccc(Nc3nc(Nc4ccccc4)nc(Nc4ccccc4)n3)c2)cc(OC)c1OC
Unit abbreviation: %
Result value: 22.9
